Measured PBM binding z-score, listed per entry.
- Test system: PPARg:RXRa IVT, anti-PPARg (NR concentration 270 nM, RXRa partner concentration 90 nM)
- experimental protocol: PBM binding z-score (relative to random genomic background probes); higher = stronger binding; sequences stand for … in GC…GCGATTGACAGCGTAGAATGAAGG
measured parameter: PBM binding z-score

In [3]: df
Out[3]:
                         residue_codes  value
 0  CGTCAAAATTCAAGGTAACGTAACAGAAAGCAGC  0.704
 1  CCAGACTGGTGAAAGGTAACTCAGTCTGGTACGC  0.829
 2  TGTCGGAGGACACGAAGGTCAGAGCTTTCCAGAG   1.54
 3  GCTTACGGGTCAAAGGATATAGCATGAATAGAAT   4.01
 4  CCTTACGCGTCACGAGGTTATAGCACGACGAGCG  0.154
 5  TCTTGTAGATCAGCAGGTTACGAAAGCTGGCCAA  0.645
 6  AGAATGAGGTTAGACGTAGATCAGGGAAGAAAGT   1.52
 7  CATACAGGGTCAGCTAAGCCAGAGTAGGGACGGC   2.48
 8  ATATGTAGTTTAAGGGTCATTCAGGTTGGTTCGC   3.45
 9  CGTCGAAGGTCAGCAGGTCAGTGAAAGCGACGTG   3.25
10  ATCTCTAGGTAATAAGTTCAGTGAAAGAGAGGAC   2.06
11  CCTAGGAGGACAGAAGGTCAGAGCTGTCCGCTTT  0.781

###

- Tested on: PPARa:RXRa (NR concentration 270 nM, RXRa partner concentration 90 nM)
- experimental protocol: PBM binding z-score (relative to random genomic background probes); higher = stronger binding; sequences stand for … in GC…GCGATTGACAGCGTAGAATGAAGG
Output schema: class label derived from PBM binding z-score. Mapping: bin 0: < 1; bin 1: ≥ 1 and < 3; bin 2: ≥ 3

In [3]: df
Out[3]:
                         residue_codes  classification
 0  ACATACAGGTGAGTGAAGGTAACTCAGCTGGACG           bin 1
 1  CTCGAAAGGTCGTGCTCAGGTGTGTATACCAAAC           bin 2
 2  AGTCAAAGTTCAGCTAGGTAACGTAAGATATGCT           bin 2
 3  GCTGCTAGGTCAACTGATGGGCAGCTAAAGCTCG           bin 2
 4  ATCTCTAGGTAAAGATAGTTCATTGAATGCAAAT           bin 1
 5  AGAATGAGGTTCTACGTAGATCAGGGAAGAAAGT           bin 0
 6  AGAACGAGGGCAATCAGTTGATAGCACGGGTGGC           bin 1
 7  TTGCCTAGGTCATGCGGGCCAGTATAGTGTCGGC           bin 2
 8  AGTCAAAGTTCATTAGGTAACGTAAGATTCAGCT           bin 2
 9  TCGCCTAGGTCAGATCGGGCCAGTATACGCTATA           bin 1
10  CCTGCTAGGTCAATGGTCAGGTAAAGCAGCTCGC           bin 2
11  CCTAGTTGGTCAGGACGTCACACACCGGATATGA           bin 0

###

- Tested on: PXR homodimer (NR concentration 270 nM)
- experimental protocol: PBM binding z-score (relative to random genomic background probes); higher = stronger binding; sequences stand for … in GC…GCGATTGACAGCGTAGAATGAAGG
Entries are sorted into classes by PBM binding z-score as follows: band 1: < -0.5; band 2: ≥ -0.5 and < 1; band 3: ≥ 1

In [3]: df
Out[3]:
                         residue_codes                        system_under_test  classification
 0  CCTGCTTGGTCAATGGTCAGCTAAAGCAGCTCGC  PXR homodimer (NR concentration 270 nM)          band 1
 1  CCTAGTTAGTCAAGGTCACACACGCTATAGGTAC  PXR homodimer (NR concentration 270 nM)          band 3
 2  CAAACTAGGTCAAGGTCAGAGTCGGTTTGTGCCA  PXR homodimer (NR concentration 270 nM)          band 3
 3  CGTGCAAGGTCAATGCTAGGTCAGTGAAAGCATT  PXR homodimer (NR concentration 270 nM)          band 2
 4  ATATGTAGGTTACATCCTGGTCATTCAGGCTATG  PXR homodimer (NR concentration 270 nM)          band 2
 5  TCTGCTAGGTCAACGATGGCCAGCTAATCTGCTA  PXR homodimer (NR concentration 270 nM)          band 1
 6  TGAGACAGGTGAAGGTAACTCAGGTACGCAGTCG  PXR homodimer (NR concentration 270 nM)          band 1
 7  TCTGCTAGGTCAACGATGGTCACCTAATCTGCTA  PXR homodimer (NR concentration 270 nM)          band 1
 8  CCTAGGTGGTCAAGGTCACACACGCTATAGGTAC  PXR homodimer (NR concentration 270 nM)          band 3
 9  ATCGAAAGGTTGAGGTGAGTATAGAGAAAGGGAA  PXR homodimer (NR concentration 270 nM)          band 2
10  CTCGAAAGGTCGGTTTAGGTGAGTATACGGATAA  PXR homodimer (NR concentration 270 nM)          band 2
11  TCATATAGGTAAAACAGGTGAAAGTCGGCATCTA  PXR homodimer (NR concentration 270 nM)          band 2

###

Reported PBM binding z-score is given for each of the following sequences.
- System: RARg homodimer (NR concentration 270 nM)
- experimental protocol: PBM binding z-score (relative to random genomic background probes); higher = stronger binding; sequences stand for … in GC…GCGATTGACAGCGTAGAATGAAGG
measured parameter: PBM binding z-score

>>> print(df.to_string())
                         residue_codes   value
 0  CCTACTGGGCCACAAAAGGTCATTGATTCAGTGA    3.91
 1  AATACAGGGTTATCGTAGGCCAGAGTACGCACAG    1.11
 2  TCGTGTAGATCAAGCAGGTTAAGAAAGCCTGAGT  -0.344
 3  GCTTGTAGATGAAGGTTAAGAAAGACTAAGCTAA   0.177
 4  TCGCGTAGGTTACCAATGGGGCATTCAGCTTTCT   0.306
 5  ATATGTAGGTAAAGGGTCATTCAGGTTGGTTCGC    3.22
 6  AATACAGGGTCACTAGACCAGAGTAGGTACGAAT    4.81
 7  ATCTCTAGGTAAGACTCAGTTCAGTTAAGAACGC   0.466
 8  GCTGCTAGGTCAGGTTGGTCAGTTAACGGGTACG    3.38
 9  CCTTACGGGTCACTGACTGGTTATAGCATTTGGA    4.61
10  AGAATGAGGATACCAAAGATCAGGGAAACGCTTG   0.437
11  GCTGCCAGGTCAACTGATGGTCAGCTAAAGCTCG    5.38
12  ATCTCCAGGTAAAGATAGTTCAGTGAATGCAAAT   0.839
13  CAAACTTGGTCACGAAAGGTCAAAGTCGAATGAC     6.2
14  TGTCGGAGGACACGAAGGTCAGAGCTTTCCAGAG    4.14
15  AGTCAAAGTTCATCGAGGTAACGTAAGATATGCT    6.25
16  TCGAGTAGGTTAGGGGCATCCAGAATGGCGTCGA   0.268
17  TCTGCTAGGTCAGTTGGTCAGCTCACGAGCTGCC    3.31
18  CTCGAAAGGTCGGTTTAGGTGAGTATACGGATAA    2.31
19  AGTCAAAGTTAAGGACGAGGTAACGTAAAGCACG   0.899
20  CGAACTAGGTCACCGGAAGGTCAAAGTCCGCATG    7.14
21  CGTCCAAGGTCAGCAGGTCAGTCAAAGCGACGTG    7.05
22  CCTGCTAGGTCAATGGTCCGCTAAAGCAGCTCGC    3.91
23  ACTAGCAGGCCAAGGGACACTCAAGATTAGTCCG   0.835
24  GGAACGAGGGCAAAGTTGATGGCATCTGTCGACG    1.74
25  CGTCCAAGGTCATAGGAGGTCAGTCAAGACAGAT    7.57

###

- Tested on: RARa:RXR (NR concentration 270 nM, RXRa partner concentration 90 nM)
- experimental protocol: PBM binding z-score (relative to random genomic background probes); higher = stronger binding; sequences stand for … in GC…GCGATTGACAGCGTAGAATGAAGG
PBM binding z-score: recorded values
measured parameter: PBM binding z-score

In [3]: df
Out[3]:
                         residue_codes  value
 0  TCATATAGGTAAATGGTGAAAGTCGGTGTGGTAA  0.554
 1  ATCTCTAGGTAAAAGTTCAGGGAATCCCGAGGAT   2.06
 2  ATCTCTAGGTAATGTTCAGTGAAAGATCGATAGA  0.543
 3  TCTACCAGGCCAGAGGGTCACTCAAGAGGTACGG   2.67
 4  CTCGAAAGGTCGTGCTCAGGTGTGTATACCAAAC   4.07
 5  TCTCGCAGGACACGAAGGTCAGAGCTTTCCAGAG   1.81
 6  CATACAGGGTCAGCTAGGACAGAGTAGGGACGGC      3
 7  AGAATGAGGTTCAGATCAGGGAAACAGAATACAT   1.41
 8  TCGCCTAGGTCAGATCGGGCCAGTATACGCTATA   1.05
 9  ACTATTAGTTGACTTAAGGCAACCGATACGACGC   1.43
10  CCTTCTAGGTCATGGTCAGCTAATCTACAGTATG   2.63
11  CCTACTGGGCCATTCAGAGGTCATTGAGCATATG   4.74

Values compiled from the supplement of paper PMC6555819.
